- systemTested: complement C5a receptor 1 (C5aR1) (Homo sapiens, UniProt P21730)
- Construct: β-galactosidase fragment (PathHunter enzyme complementation); host or cells: CHO-K1 (PathHunter CHO-K1 C5aR1 β-arrestin cell line)
- Sequence (P21730 1-350): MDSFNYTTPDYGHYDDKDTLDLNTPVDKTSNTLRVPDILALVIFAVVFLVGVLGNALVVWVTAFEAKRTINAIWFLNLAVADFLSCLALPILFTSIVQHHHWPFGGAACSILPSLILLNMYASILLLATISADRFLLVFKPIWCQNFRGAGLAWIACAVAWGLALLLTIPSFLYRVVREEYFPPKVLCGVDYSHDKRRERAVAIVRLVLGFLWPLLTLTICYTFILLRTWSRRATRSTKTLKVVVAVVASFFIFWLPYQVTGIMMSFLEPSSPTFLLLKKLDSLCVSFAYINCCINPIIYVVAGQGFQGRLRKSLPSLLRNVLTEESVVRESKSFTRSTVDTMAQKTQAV
- assayRemarks: β-arrestin recruitment via C5aR1 activation in live CHO-K1 cells (PathHunter), antagonist mode
- Format: cell-based
- protocolConditions: antagonist mode; recombinant hC5a (EC90) as competing natural agonist; live CHO-K1 cells; read-out: [Antagonist] B-arrestin2 recruitment: Average IC50
- Protocol: Exemplary compounds were evaluated for classical GPCR β-arrestin recruitment via complement C5a receptor 1 (C5aR1) activation in live CHO-K1 cells. This cell line expresses two fragments of the […] protein coupled to β-arrestin and C5aR1. Complementation of the two fragments allows for the assessment of both C5aR1 agonism and antagonism. […]
pIC50: −log10 of the molar value.
experimentalEndpoint: pIC50

Exam item: So what does the record say about pIC50 for Cc1cccc(F)c1C1CCN(c2cc3nccnc3n(Cc3ncccc3C(F)(F)F)c2=O)CC1 [compound 91] ?
Marked response: 5.30 to 6.30

Exam item: Same thing, different molecule: Cc1cnc2cc(C3CCN(c4nnccc4C(F)(F)F)CC3)c(=O)n(Cc3ncccc3C(F)(F)F)c2n1 [compound 165]
Marked response: > 6.30

Exam item: Same thing, different molecule: Cc1cnc2cc(N3CCN(c4c(C)cccc4F)CC3)c(=O)n(Cc3ncccc3C(F)F)c2n1 [compound 140]
Marked response: > 6.30

Exam item: Same thing, different molecule: Cc1cnc2cc([C@H]3CC[C@H](c4c(C)cccc4F)CC3)c(=O)n(Cc3ncccc3OC(F)(F)F)c2n1 [compound 152]
Marked response: > 6.30

Continuing:
Exam item: So what does the record say about pIC50 for Cc1cccc(F)c1N1CCC(c2cc3nccnc3n(Cc3nccnc3C)c2=O)CC1 [compound 20] ?
Marked response: 5.30 to 6.30

---

- systemTested: complement C5a receptor 1 (C5aR1) (Homo sapiens, UniProt P21730)
- Construct: β-galactosidase fragment (PathHunter enzyme complementation); host or cells: CHO-K1 (PathHunter CHO-K1 C5aR1 β-arrestin cell line)
- Sequence (P21730 1-350): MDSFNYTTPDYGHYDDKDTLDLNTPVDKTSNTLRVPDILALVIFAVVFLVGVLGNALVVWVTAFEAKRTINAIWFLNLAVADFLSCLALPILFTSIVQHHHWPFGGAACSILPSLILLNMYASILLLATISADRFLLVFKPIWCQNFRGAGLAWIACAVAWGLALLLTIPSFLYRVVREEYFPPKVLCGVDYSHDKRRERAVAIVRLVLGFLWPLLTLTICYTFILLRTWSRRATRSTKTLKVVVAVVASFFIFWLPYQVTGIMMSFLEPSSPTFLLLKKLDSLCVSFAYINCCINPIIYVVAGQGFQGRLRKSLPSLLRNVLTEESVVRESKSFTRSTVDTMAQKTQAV
- assayRemarks: β-arrestin recruitment via C5aR1 activation in live CHO-K1 cells (PathHunter), antagonist mode
- Format: cell-based
- protocolConditions: antagonist mode; recombinant hC5a (EC90) as competing natural agonist; live CHO-K1 cells; read-out: [Antagonist] B-arrestin2 recruitment: Average IC50
pIC50: −log10 of the molar value.
The following molecules are shown together with reported pIC50 values.

Exam item: So what does the record say about pIC50 for "Cc1cnc2cc([C@H]3CC[C@H](c4c(F)cccc4F)CC3)c(=O)n(Cc3ncccc3OC(F)(F)F)c2n1" ?
Marked response: > 6.30
